Values were extracted from patent US11110082B2.

# Experimental system: MerTK (Homo sapiens, UniProt Q12866)
# Construct: Seed HUVECs (10K cells/well) in EBM-2 complete media
# Procedure summary: PAKT HTRF-HUVEC assay (pAkt Ser473 HTRF after anti-human MerTK-XL stimulation)
# Conditions: HUVEC cells, 1 hour compound, stimulated with anti-human MerTK-XL 1 ug/mL for 10 minutes, read-out: inhibition of MerTK
Endpoint: pEC50
Kindly note that pEC50 refers to -log10 of the concentration in mol/L and answer with the value alone.

Looking up CN1CCN(Cc2ccc3c(c2)c(=O)n([C@H]2CC[C@H](OC(N)=O)CC2)c2nc(NCC4CC4)ncc32)CC1 [Compound 59] , I found its pEC50 recorded as 6.53

Looking up O=c1c2cc(N3CCN4CCC[C@@H]4C3)ccc2c2cnc(NCC3CC3)nc2n1[C@H]1CC[C@H](O)CC1 [Compound 103] , I found its pEC50 recorded as 6.89

Looking up CCCCNc1ncc2c3ccc(CN4CCOCC4)cc3c(=O)n([C@H]3CC[C@@H](O)CC3)c2n1 [Compound 4] , I found its pEC50 recorded as 6.76

---

// pEC50 lookup, one value per entry
# Experimental system: MerTK (Homo sapiens, UniProt Q12866)
# Construct: Seed HUVECs (10K cells/well) in EBM-2 complete media
# Procedure summary: PAKT HTRF-HUVEC assay (pAkt Ser473 HTRF after anti-human MerTK-XL stimulation)
# Conditions: HUVEC cells, 1 hour compound, stimulated with anti-human MerTK-XL 1 ug/mL for 10 minutes, read-out: inhibition of MerTK
Kindly note that pEC50 refers to -log10 of the concentration in mol/L and answer with the value alone.

Below, each entry is followed by its recorded pEC50 result.
CCC1(CNc2ncc3c4ccc(N5CCN(C)CC5)cc4c(=O)n([C@H]4CC[C@H](O)CC4)c3n2)CC1 = 5.96
C[C@]1(O)CC[C@H](n2c(=O)c3cc(CN4CCC(N5CCCC5)CC4)ccc3c3cnc(NCC4CC4)nc32)CC1 = 7.48
CCCCNc1ncc2c3ccc(CN4CCN(C)CC4)cc3c(=O)n([C@H]3CC[C@H](C(=O)N(C)C)CC3)c2n1 = 6.94

Looking up CCCCNc1ncc2c3ccccc3c(=O)n(C3CC4(CC(O)C4)C3)c2n1 (stereo not shown) , I found its pEC50 recorded as 6.33

Looking up C[C@@H]1CN(c2ccc3c(c2)c(=O)n([C@H]2CC[C@H](O)CC2)c2nc(NCC4CC4)ncc32)CCN1C , I found its pEC50 recorded as 7.15

---

# Experimental system: MerTK (Homo sapiens, UniProt Q12866)
# Construct: Seed HUVECs (10K cells/well) in EBM-2 complete media
# Sequence (Q12866 21-999): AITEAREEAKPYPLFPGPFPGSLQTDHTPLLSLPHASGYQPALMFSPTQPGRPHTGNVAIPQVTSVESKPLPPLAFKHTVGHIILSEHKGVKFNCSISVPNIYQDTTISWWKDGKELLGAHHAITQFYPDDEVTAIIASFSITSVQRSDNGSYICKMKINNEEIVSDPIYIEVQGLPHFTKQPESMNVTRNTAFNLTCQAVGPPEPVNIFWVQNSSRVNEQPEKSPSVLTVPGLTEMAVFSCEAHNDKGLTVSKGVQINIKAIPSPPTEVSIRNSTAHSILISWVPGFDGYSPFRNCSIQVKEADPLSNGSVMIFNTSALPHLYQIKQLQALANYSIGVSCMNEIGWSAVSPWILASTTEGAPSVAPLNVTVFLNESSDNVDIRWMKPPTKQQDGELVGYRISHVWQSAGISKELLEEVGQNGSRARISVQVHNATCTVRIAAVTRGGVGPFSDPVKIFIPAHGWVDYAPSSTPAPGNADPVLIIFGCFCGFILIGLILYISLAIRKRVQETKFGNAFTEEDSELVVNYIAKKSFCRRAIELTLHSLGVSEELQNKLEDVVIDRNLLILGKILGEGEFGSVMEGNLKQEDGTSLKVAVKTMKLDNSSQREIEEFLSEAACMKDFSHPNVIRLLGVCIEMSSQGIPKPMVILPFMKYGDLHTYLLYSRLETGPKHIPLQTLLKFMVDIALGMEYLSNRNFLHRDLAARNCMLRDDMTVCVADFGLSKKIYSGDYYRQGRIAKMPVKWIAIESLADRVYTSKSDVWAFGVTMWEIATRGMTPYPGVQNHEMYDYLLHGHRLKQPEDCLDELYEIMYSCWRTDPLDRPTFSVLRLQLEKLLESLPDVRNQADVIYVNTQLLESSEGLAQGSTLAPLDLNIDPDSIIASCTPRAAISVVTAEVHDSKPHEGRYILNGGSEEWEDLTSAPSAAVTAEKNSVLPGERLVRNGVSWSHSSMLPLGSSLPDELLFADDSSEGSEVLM
# Procedure summary: PAKT HTRF-HUVEC assay (pAkt Ser473 HTRF after anti-human MerTK-XL stimulation)
# Conditions: HUVEC cells, 1 hour compound, stimulated with anti-human MerTK-XL 1 ug/mL for 10 minutes, read-out: inhibition of MerTK
# Protocol: Example 4: PAKT HTRF-HUVEC Assay Phospho Akt (Ser473) Assay kit-10,000 tests (Cisbio US, 64[…]) HUVEC cells (Lonza, CC-2519) Anti-human MerTK antibody (Clone 125518) (R&D Systems, MAB8912) Method Seed HUVECs (10K cells/well) in EBM-2 complete media (EBM-2 basal medium plus EGM-2 BulletKit supplements) overnight at 37° C., 5% CO2 in Costar 96-well white clear-bottom plates. Remove culture media and starve cells for 3-4 hours in 50 μL/well EBM-2 basal medium. […]
Endpoint: EC50 (nM)
Express your answer in nM, writing the number without its unit.

Below, each entry is followed by its recorded EC50 result.
O=c1c2cc(CN3CCN(CC(F)F)CC3)ccc2c2cnc(NCC3CC3)nc2n1[C@H]1CC[C@H](O)CC1 [Compound 43] = 51.3
CCC(F)(F)CNc1ncc2c3ccc(CN4CCN(c5ccncc5)CC4)cc3c(=O)n([C@H]3CC[C@H](O)CC3)c2n1 = 86.1

Continue with the compound presented below.
Observed EC50 on MerTK (Homo sapiens, UniProt Q12866), entry O=c1c2cc(CN3CCN(CC(F)F)CC3)ccc2c2cnc(NCC3CC3)nc2n1[C@H]1CC[C@H](O)CC1 [Compound 153] , equals 51.3
